tested on: DLD1; experiment: cell viability (CellTiter-Glo) relative to plate median (fraction of plate median); higher = more viable cells; conditions: 5 µM; treatment time 24 h; reporter: 7TFP
Cut-off 1 on cell viability: below means Satisfied, at or above means Not satisfied.

COc1cc(O)c(C(=O)c2ccccc2)cc1O: Satisfied
CC1=C(/C=C/C(C)=C/C=C/C(C)=C/C(=O)O)C(C)(C)CCC1: Satisfied
C=C[C@H]1CN2CC[C@H]1C[C@H]2[C@H](O)c1ccnc2ccc(OC)cc12: Not satisfied

Dear reviewer, please state whether NS(=O)(=O)c1cc2c(cc1Cl)N=CNS2(=O)=O has cell viability strictly beneath 1.
Satisfied

Dear reviewer, please state whether COc1ccc(-c2coc3cc(OC)cc(OC)c3c2=O)cc1 has cell viability strictly beneath 1.
Not satisfied

Dear reviewer, please state whether COc1ccc(-c2cc(=O)c3c(O)c(OC)c(O[C@@H]4O[C@H](CO[C@@H]5O[C@@H](C)[C@H](O)[C@@H](O)[C@H]5O)[C@@H](O)[C@H](O)[C@H]4O)cc3o2)cc1 has cell viability strictly beneath 1.
Satisfied

---

Would you mind telling me the reported cell viability of each entry?
tested on: DLD1; assay: cell viability (CellTiter-Glo) relative to plate median (fraction of plate median); higher = more viable cells; settings: 5 µM; treatment time 24 h; reporter: 7TFP
Answers are plain numbers.

Answered examples (5):
CC(C)C[C@H]1NC(=O)[C@@H](NC(=O)c2ncccc2O)[C@@H](C)OC(=O)[C@H](c2ccccc2)N(C)C(=O)[C@H](C)NC(=O)[C@H]([C@@H](C)C(C)C)N(C)C(=O)CN(C)C(=O)[C@H]2C[C@@H](O)CN2C1=O: 1.04
Cn1c(=O)[nH]c2[nH]cnc2c1=O: 1.02
COc1ccc(-c2cc(=O)c3c(O)cc(O)cc3o2)cc1: 1.03
CN1CCCC(n2nc(Cc3ccc(Cl)cc3)c3ccccc3c2=O)CC1 (centres undefined): 1.01
CC1(C)CC[C@]2(C(=O)O)CC[C@]3(C)C(=CCC4[C@@]5(C)CC[C@@H](O)C(C)(C)C5CC[C@]43C)C2C1 (some centres undefined): 0.967

Kindly give each listed record's cell viability.
1. O=c1cc(-c2ccc(O)cc2)oc2ccc(O)cc12
2. C(=C\c1ccccc1)/CN1CCN(C(c2ccccc2)c2ccccc2)CC1
3. Cc1cc(N)c2ccccc2[n+]1CCCCCCCCCC[n+]1c(C)cc(N)c2ccccc21
4. N=C(N)NC(=O)c1nc(Cl)c(N)nc1N

1. 1.11
2. 0.989
3. 0.995
4. 0.963

---

test system: DLD1; test: TCF/Wnt firefly luciferase reporter signal relative to plate median (fraction of plate median); higher = higher Wnt reporter signal; conditions: 5 µM; treatment time 24 h; reporter: 7TFP
Lab note: compare TCF/Wnt firefly luciferase reporter signal against 1. Equal or greater, write t. Smaller, write f.

Here's what some known entries look like.
CN1CCC(=C2c3ccccc3Sc3ccccc32)CC1: f
CC(=O)Nc1cc2nc3ccccc3oc-2cc1=O: t
Cc1nnc(NS(=O)(=O)c2ccc(N)cc2)s1: f
O=CN(O)CCCC(NC(=O)C(CO)NC(=O)C1COC(c2ccccc2O)=N1)C(=O)NCCC(=O)NC1CCCN(O)C1=O (centres undefined) [Oxachelin hydrate]: t
CC1/C(=N/O)C[C@@H]2C[C@H]1C2(C)C (some centres undefined): t

Please check the record CN(C)CCc1c[nH]c2ccc(Cn3cncn3)cc12 and state if its TCF/Wnt firefly luciferase reporter signal is at or above 1.
t

Please check the record CCOc1nc2cccc(C(=O)OC(C)OC(=O)OC3CCCCC3)c2n1Cc1ccc(-c2ccccc2-c2nn[nH]n2)cc1 (centres undefined) and state if its TCF/Wnt firefly luciferase reporter signal is at or above 1.
t

Please check the record C=C1CC[C@@H]2[C@](C)(CO)[C@H](O)CC[C@@]2(C)[C@@H]1C/C=C1/C(=O)OC[C@H]1O and state if its TCF/Wnt firefly luciferase reporter signal is at or above 1.
t

Please check the record CN1CCN(CCCN2c3ccccc3Sc3ccc(C(F)(F)F)cc32)CC1 and state if its TCF/Wnt firefly luciferase reporter signal is at or above 1.
t

Please check the record COc1ccc2c(c1)[C@@]1(C)CCC(=O)C[C@H]1CC2 and state if its TCF/Wnt firefly luciferase reporter signal is at or above 1.
t

Please check the record COc1ccc(-c2coc3cc(OC)cc(OC)c3c2=O)cc1 and state if its TCF/Wnt firefly luciferase reporter signal is at or above 1.
f

Please check the record COc1cc2nc(N3CCN(C(=O)c4ccco4)CC3)nc(N)c2cc1OC and state if its TCF/Wnt firefly luciferase reporter signal is at or above 1.
t

Please check the record CCCCCCCCCCCCCCCC[N+](C)(C)C and state if its TCF/Wnt firefly luciferase reporter signal is at or above 1.
f

Please check the record Cc1c(OCC(F)(F)F)ccnc1C[S+]([O-])c1nc2ccccc2[nH]1 (centres undefined) and state if its TCF/Wnt firefly luciferase reporter signal is at or above 1.
t

---

Would you mind telling me the reported cell viability of each entry?
tested on: SW480; assay: cell viability (CellTiter-Glo) relative to plate median (fraction of plate median); higher = more viable cells; conditions: 5 µM; treatment time 24 h; reporter: 7TFP
One number for each entry.

Answered examples (3):
C/C=C(\CO)C(=O)O[C@H]1[C@H](O)[C@@H](C(=O)OC)O[C@@H]2C[C@H]3O[C@@H](n4cnc5c(N)ncnc54)[C@H](OC)[C@H]3O[C@]21O: 0.982
CC(=O)Nc1ccc(OC(=O)c2ccccc2O)cc1: 0.978
NC/C=C/C(=O)O: 1

Kindly give each listed record's cell viability.
1. CS(=O)(=O)c1ccc([C@@H](O)[C@@H](CO)NC(=O)C(Cl)Cl)cc1
2. CC(C)(C)NCC(O)COc1cccc2c1CC(O)C(O)C2 (stereo not given)
3. CCc1cc(C(N)=S)ccn1
4. COc1cc2oc3cc(OC)c(OC)c(CC=C(C)C)c3c(=O)c2c(OC)c1CC=C(C)C

1. 0.925
2. 1.04
3. 0.987
4. 1.03

Kindly give each listed record's cell viability.
1. Cc1cc(C(C)(C)C)cc(C)c1CC1=NCCN1
2. O=C(O)c1cc(/N=N/c2ccc(S(=O)(=O)Nc3ccccn3)cc2)ccc1O
3. CCn1cc(C(=O)O)c(=O)c2cc(F)c(N3CCNC(C)C3)c(F)c21 (stereo not given)

1.07
1.04
0.98

---

system: DLD1; assay: cell viability (CellTiter-Glo) relative to plate median (fraction of plate median); higher = more viable cells; details: 5 µM; treatment time 24 h; reporter: 7TFP
Cut-off 1 on cell viability: below means criterion met, at or above means criterion not met.

O=C1CCC(N2C(=O)c3ccccc3C2=O)C(=O)N1 (stereo not drawn): criterion met
O=C(O[C@@H]1Cc2c(O)cc(O)cc2O[C@@H]1c1cc(O)c(O)c(O)c1-c1c([C@H]2Oc3cc(O)cc(O)c3C[C@H]2OC(=O)c2cc(O)c(O)c(O)c2)cc(O)c(O)c1O)c1cc(O)c(O)c(O)c1: criterion not met
CC(C)[C@@H](C)/C=C/[C@@H](C)[C@H]1CC[C@H]2C3=CC=C4C[C@@H](O)CC[C@]4(C)[C@H]3CC[C@]12C: criterion not met

Dear reviewer, please state whether CC(C)Cn1c(=O)n(C)c(=O)c2nc[nH]c21 has cell viability strictly beneath 1.
criterion met

---

test system: SW480; assay: TCF/Wnt firefly luciferase reporter signal relative to plate median (fraction of plate median); higher = higher Wnt reporter signal; details: 10 µM; treatment time 24 h; reporter: 7TFP
Lab note: compare TCF/Wnt firefly luciferase reporter signal against 0.8. Equal or greater, write T. Smaller, write F.

N#CCNC(=O)c1ccc(-c2ccnc(Nc3ccc(N4CCOCC4)cc3)n2)cc1: T
CCCCOc1c(C(=O)c2c(F)cc(C)cc2F)c[nH]c2nncc1-2: F
C=CC(=O)Nc1ccc2ncnc(Nc3ccc(OCc4cccc(F)c4)c(Cl)c3)c2c1: T

Please examine the following record next.
Please check the record NC(=O)c1ccc(N(C(N)=O)c2c(F)cccc2F)nc1-c1ccc(F)cc1F and state if its TCF/Wnt firefly luciferase reporter signal is at or above 0.8.
F

---

Would you mind telling me the reported cell viability of each entry?
system: SW480; test: cell viability (CellTiter-Glo) relative to plate median (fraction of plate median); higher = more viable cells; conditions: 5 µM; treatment time 24 h; reporter: 7TFP
Give bare numbers.

Answered examples (2):
CC(=O)O[C@@H]1C2=C(C)C=C(O2)[C@H]2O[C@]2(C)C[C@H]2C=C(C(=O)O2)[C@H](OC(C)=O)CC1[C@@]1(C)CO1 (stereo partly drawn) [bipinnatin H]: 0.984
COC(=O)C[C@H]1C(C)(C)[C@@H](O)[C@@H]2CC3=C4CC(O)O[C@@H](c5ccoc5)[C@]4(C)CCC3[C@@]1(C)C2=O (stereo partly drawn) [3,16-DIDEOXYMEXICANOLIDE-3beta-DIOL]: 1.03

Next item in the queue.
Summary line: C[C@@H]1Cc2cc(O)cc(O)c2C(=O)O[C@H](C)CC(=O)O[C@H](CO)CC(=O)O[C@H](C)Cc2cc(O)cc(O)c2C(=O)O[C@H](C)CC(=O)O1 , SW480, reported cell viability = 1.01
